The measured values listed here are drawn from ChEMBL document CHEMBL1201862.

For each of the compounds below, state its GI50.
- Tested on: IGROV-1
- protocol text: NCI tumour cell line growth inhibition, 48 h
Active and inactive are the calls of the source. Rule as the data show it: active = GI50 up to about 1.1 µM and inactive = higher.

The following compounds have reported results that may help.
CCOC1=C2N=C(C(CC)c3ccc(F)cc3)N=C2C(=O)c2ccccc21 (configuration not stated) = 23.5 µM (inactive)
Cc1cccc2ns[s+]c12 = > 100 µM (inactive)
CCOC(=O)C1=C(C)N2CCCOC2(C)C(C(=O)OC)C1c1cccc([N+](=O)[O-])c1 (configuration not stated) = > 100 µM (inactive)

I would be grateful if you could provide GI50 for each of the following entries.
1. CC1(C)C(=O)C2(OS(=O)(=O)C(F)(F)F)CCC1C2 (configuration not stated)
2. COC(=O)/C=C\C(C#N)(C#N)/N=C/c1cccc(OC)c1
3. Nc1ccc(Nc2cc(O)nc(O)n2)cc1
4. CC(=O)N1CCN(C=S)CC1

Given back:
["> 100 µM (inactive)", "11.7 µM (inactive)", "> 100 µM (inactive)", "> 100 µM (inactive)"]

###

Hi there, I'd appreciate the recorded GI50 for every entry that follows.
- Test system: TK-10
- protocol text: NCI tumour cell line growth inhibition, 48 h
Calls of active or inactive are those of the source. Cut-off read from the data, not from the text of the source: active = GI50 up to about 1.1 µM and inactive = higher. Non-standard residues stand in square brackets, D forms with d. Residues, ends and D or L forms follow the SMILES beside them. ξ: configuration not given here. ξLac(3-iPr) = CC(C)CC(O)C(=O)O; NMeV = CN[CH](C(=O)O)C(C)C; NMeA = CN[CH](C)C(=O)O; βAla = NCCC(=O)O

Recorded GI50, per entry:
CC1=NN=C(N)N/C1=C\C(Sc1ccc(Cl)cc1)c1ccc(Cl)cc1Cl (stereo unspecified) = 17.5 µM (inactive)
C=C(CN(C)C)C(=O)c1ccccc1Cl = 21.7 µM (inactive)
O=C1CC[C@@H](S(=O)(=O)c2ccccc2)[C@@H](/C=C/c2ccccc2)O1 = > 100 µM (inactive)
Cc1ccc(CNc2ccc(Br)cc2)cc1 = 40 µM (inactive)
CC/C=C/C(/C=C/C[C@]1(CC)C[C@H](CC)[C@H](CC(=O)O)OO1)CC (stereo partly specified) = 1.91 µM (inactive)

Lab note: each compound below needs its GI50 filled in.
1. Clc1ccc(C2ON=C(c3ccccc3)N2C23CC4CC(CC(C4)C2)C3)cc1Cl (stereo unspecified)
2. CC(C)(Sc1cc(C(C)(C)C)c(O)c(C(C)(C)C)c1)Sc1cc(C(C)(C)C)c(O)c(C(C)(C)C)c1
3. Nc1ccc(Nc2cc(O)nc(O)n2)cc1
4. Oc1cc(-c2ccc3c(c2)OCO3)nc2cc3c(cc12)OCO3
5. C[n+]1c(-c2ccc(/C=N/N=C/c3ccc(-c4cn5ccccc5[n+]4C)cc3)cc2)cn2ccccc21

Given back:
1. > 10 µM (inactive)
2. > 100 µM (inactive)
3. > 100 µM (inactive)
4. 63.8 µM (inactive)
5. > 100 µM (inactive)

Hey, quick one: what's GI50 for each of these?
1. O=C1CCC2(CC1CCSc1ccccc1)OCCO2 (stereo unspecified)
2. CC(=O)c1c2c(cc3c1CC1(C3)Cc3cc4c(c(C(=O)O)c3C1)CCCC4)CCCC2.CC(N)c1ccccc1 (stereo unspecified)

Given back:
["> 100 µM (inactive)", "37.5 µM (inactive)"]

Parameter requested: GI50. Apply to each item below.
1. COc1ccc(Cc2n[nH]c(Nc3ccc(Br)cc3)nc2=O)cc1OC
2. Cc1ccc(/C=N/NS(=O)(=O)c2ccccc2)cc1C
3. O=C1C2c3[nH]c4ccccc4c3C3CCCCCCC3C2C(=O)N1c1ccccc1 (stereo unspecified)
4. CC(=O)Nc1ccc(-c2nnc(SCC(=O)Nc3cccc(Cl)c3)o2)cc1
5. c1cc2c(c(-c3c4ccccc4nc4ccccc34)c1)CC1(CC2)OCCO1
6. O=C(Nc1ccccc1-c1nn(C(=S)Nc2ccccc2)c(=S)n(C(=S)Nc2ccccc2)c1=O)C(F)(F)F
7. C[C@@]12C[C@@H](c3ccccc3O1)N1CCSC1=N2

Given back:
1: > 100 µM (inactive); 2: > 100 µM (inactive); 3: 12 µM (inactive); 4: 19.6 µM (inactive); 5: > 100 µM (inactive); 6: 35.3 µM (inactive); 7: > 100 µM (inactive)

For every item in the list below, what is its measured GI50?
1. CCCN(CCC)C(=O)c1c([N+](=O)[O-])cc(C(F)(F)F)cc1[N+](=O)[O-]
2. Cc1ccc(-c2cn3c(nc4ccccc43)c(/C=C/c3ccco3)n2)cc1

Given back:
["> 100 µM (inactive)", "> 100 µM (inactive)"]

Provide GI50 values for the following items, in order.
1. CC(=O)NC1=C(Nc2ccc(C)cc2)C(=O)c2ccccc2C1=O
2. CCOC(=O)Nn1cnnc1Cc1ccccc1
3. COC(=O)[C@@]12C3=NO[C@]1(C(=O)OC)C(O[Si](C)(C)C(C)(C)C)C1OC(C)(C)OC1[C@@H]2[C@@H](OCc1ccccc1)CC3 (stereo partly specified)
4. COc1cccc(N2C(Cl)C(=O)C2c2c[nH]c3ccccc23)c1 (stereo unspecified)

Given back:
1: > 75 µM (inactive); 2: > 100 µM (inactive); 3: > 100 µM (inactive); 4: > 100 µM (inactive)

List the reported GI50 of each compound below.
1. O=[N+]([O-])c1cc(C(F)(F)F)cc2n[se]nc12
2. Cn1nc2ccc3nccc(N4CCN(CCO)CC4)c3c2n1

Given back:
1: 4.5 µM (inactive); 2: > 100 µM (inactive)

// batch mode: one GI50 value per listed entry
1. CCN(CC)CCn1nc(N)c2nc3cc(Cl)ccc3nc21
2. COc1ccccc1NC(=S)Nc1cc(C)ccn1
3. O=c1c(-c2ccccc2Cl)coc2cc(F)ccc12
4. NC1=NC(=O)[C@H](Cc2c[nH]c3ccccc23)N1C(=O)OCc1ccccc1

Given back:
["> 100 µM (inactive)", "> 100 µM (inactive)", "47.9 µM (inactive)", "> 100 µM (inactive)"]

For each entry beneath this line, provide reported GI50.
1. O=C(/C=C/c1ccc(O)c(O)c1)Oc1ccccc1
2. Nc1csc(-c2scc3c2OCCO3)c1N
3. C=C(C)CCC1C=[N+]([O-])OC(C)(C)C1(C)C (stereo unspecified)
4. CCC1(O)C(=O)OCc2c1cc1n(c2=O)Cc2c-1nc1ccccc1c2OC (stereo unspecified)
5. CN1CCN(C2CC(=O)c3c(Cl)sc(Cl)c32)CC1 (stereo unspecified)
6. C1=C[C@]2(CCC13OCCO3)COc1ccccc12
7. COc1ccc2o/c(=N/c3ccccc3)c(C(N)=O)cc2c1
8. CC(C)C1=CC23CCC4C(C)(C(=O)O)CCCC4(C)C2CC1C1C(=O)N(c2cccc(N4C(=O)C5C6CC7C8(C)CCCC(C)(C(=O)O)C8CCC7(C=C6C(C)C)C5C4=O)c2)C(=O)C13 (stereo unspecified)

Given back:
28.1 µM (inactive)
33.1 µM (inactive)
> 100 µM (inactive)
3.52 µM (inactive)
29 µM (inactive)
49.1 µM (inactive)
> 49.2 µM (inactive)
15.9 µM (inactive)

Can you give me GI50 for all of these, one by one?
1. CCC(C)C1NC(=O)C2CCCN2C(=O)C(CC(C)C)OC(=O)CCNC(=O)C(C)N(C)C(=O)C(C(C)C)N(C)C1=O (stereo unspecified) (cyclo([ξLac(3-iPr)]PI[NMeV][NMeA][βAla]); configuration not given here)
2. C/C(=N\Nc1nc2ccccc2s1)c1ccc2ccccc2n1

Given back:
["23.2 µM (inactive)", "88.7 µM (inactive)"]

###

Field: GI50. Provide a value for each of the compounds that follow.
- Tested on: HOP-62
- protocol text: NCI tumour cell line growth inhibition, 48 h
Calls of active or inactive are those of the source. Rule as the data show it: active = GI50 up to about 1.1 µM and inactive = higher.

Consider the reported GI50 for these compounds:
CCCCCCCCCCCCCCCCCCNc1ccn(C2OC(COP(=O)(O)OC3CC(n4cc(F)c(=O)[nH]c4=O)OC3COP(=O)(O)OCC3OC(n4ccc(N)nc4=O)C(O)C3O)C(O)C2O)c(=O)n1 (centres undefined) = 10.4 µM (inactive)
CCOP(=O)(OCC)c1ccc(=O)[nH]c1-c1cccs1 = > 100 µM (inactive)
CC(=O)OCC1OC(n2c3c(cc(C#N)c2=O)CCCCCC3)C(OC(C)=O)C(OC(C)=O)C1OC(C)=O (centres undefined) = > 100 µM (inactive)

Consider the additional compound presented here.
GI50 reported for this compound CCOc1ncn(-c2ccc(NC(=S)NC34CC5CC(CC(C5)C3)C4)cc2)n1 : 35.2 µM (inactive)

###

So I've got a bunch of compounds here, and I need their GI50 values.
- System: SF-295
- protocol text: NCI tumour cell line growth inhibition, 48 h
The source made the active and inactive calls. Cut-off read from the data, not from the text of the source: active = GI50 up to about 1.1 µM and inactive = higher.

Solved cases (5 shown):
CC(=O)N1N=C(c2ccc3ccccc3c2O)CC1C(=O)c1ccco1 (stereo not given) = 24 µM (inactive)
C=C(CN(C)C)C(=O)c1ccccc1Cl = > 65.3 µM (inactive)
CCNC(=S)N/N=C/c1cc(OC)ccc1O = 70.3 µM (inactive)
Cc1ccc(C)c(N2C(=O)C(=O)c3c(C)ccc(C)c32)c1 = 22.9 µM (inactive)
O=C(Nc1ccccc1)c1nn(-c2cc(S(=O)(=O)O)c([N+](=O)[O-])cc2Cl)[n+](-c2cc(S(=O)(=O)[O-])c([N+](=O)[O-])cc2Cl)n1 = > 100 µM (inactive)

Can you give me GI50 for all of these, one by one?
1. CC(C)(C)CC(C)(C)NCC(O)COc1ccc(C(C)(C)c2ccc(OCC(O)CNC(C)(C)CC(C)(C)C)cc2)cc1 (stereo not given)
2. CCN(CC)CC[S+]([O-])c1c2cc(OC)ccc2nc2ccc(OC)cc12 (stereo not given)
3. COc1ncnc2c1cnn2Cc1cn(CCCCO)nn1
4. COc1cc(/C=C/c2ccc(OC)c(OC)c2)oc(=O)c1
5. CC(=O)OCC1OC(n2c3c(cc(C#N)c2=O)CCCCCC3)C(OC(C)=O)C(OC(C)=O)C1OC(C)=O (stereo not given)
6. CCCC(Sc1nc(N)nc2nc[nH]c12)C(=O)O (stereo not given)
7. c1cc2c(c(-c3c4ccccc4nc4ccccc34)c1)CC1(CC2)OCCO1
8. N/N=C(\c1nc2ccc([N+](=O)[O-])cc2nc1O)C(O)c1ccc(Cl)c(Cl)c1 (stereo not given)

Given back:
1.68 µM (inactive)
21.8 µM (inactive)
> 100 µM (inactive)
162 µM (inactive)
> 100 µM (inactive)
59.7 µM (inactive)
> 100 µM (inactive)
> 100 µM (inactive)

Please state, for each entry, its recorded GI50.
1. CCOP(=O)(OCC)/C(=C\n1c(=S)[nH]c2cc(C)ccc21)C(=O)OC
2. CC(=O)N1CCN(C=S)CC1

Given back:
1. > 100 µM (inactive)
2. > 100 µM (inactive)
